The reported measurements were obtained from patent US20250163449A1.

experiment: Enzymatic kinetic measurements of purified proteins with compound A as substrate; format: biochemical; details: purified protein, compound A 0-1000 μM as substrate
Kindly state Kcat for each of the entries shown.
Numeric answer only, unit S^−1 assumed.

Q. Give the measured Kcat of SEQ ID NO: 58: RdpA mutant L82H + V187L + F182W + R104G + R180M (protein) MHAALSPLSQRFERIAVQPLTGVLGAEITGVDLREPLDDSTWNEILDAFHTYQVIYFPGQAITNEQHIAFSRRFGPVDPVPHLKSIEGYPEVQMIRREANESGGVIGDDWHTDSTFLDAPPAAVVMRAIDVPEHGGDTGFLSMYTAWETLSPTMQATIEGLNVVHSATRVFGSLYQAQNMRWSNTSLKVMDVDAGDRETVHPLVVTHPGSGRKGLYVNQVYCQRIEGMTDAESKPLLQFLYEHATRFDFTCRVRWKKDQVLVWDNLCTMHRAVPDYAGKFRYLTRTTVGGVRPAR .
A. 0.05

Q. Give the measured Kcat of SEQ ID NO: 38: RdpA mutant L82H + V187L + F182W + R104G (protein) MHAALSPLSQRFERIAVQPLTGVLGAEITGVDLREPLDDSTWNEILDAFHTYQVIYFPGQAITNEQHIAFSRRFGPVDPVPHLKSIEGYPEVQMIRREANESGGVIGDDWHTDSTFLDAPPAAVVMRAIDVPEHGGDTGFLSMYTAWETLSPTMQATIEGLNVVHSATRVFGSLYQAQNRRWSNTSLKVMDVDAGDRETVHPLVVTHPGSGRKGLYVNQVYCQRIEGMTDAESKPLLQFLYEHATRFDFTCRVRWKKDQVLVWDNLCTMHRAVPDYAGKFRYLTRTTVGGVRPAR .
A. 0.43

Q. Give the measured Kcat of SEQ ID NO: 118: RdpA mutant L82H + V187L + F182W + R104G + V77I (protein) MHAALSPLSQRFERIAVQPLTGVLGAEITGVDLREPLDDSTWNEILDAFHTYQVIYFPGQAITNEQHIAFSRRFGPIDPVPHLKSIEGYPEVQMIRREANESGGVIGDDWHTDSTFLDAPPAAVVMRAIDVPEHGGDTGFLSMYTAWETLSPTMQATIEGLNVVHSATRVFGSLYQAQNRRWSNTSLKVMDVDAGDRETVHPLVVTHPGSGRKGLYVNQVYCQRIEGMTDAESKPLLQFLYEHATRFDFTCRVRWKKDQVLVWDNLCTMHRAVPDYAGKFRYLTRTTVGGVRPAR .
A. 0.43
